All values here come from BindingDB's records for patent US11401286.

- TARGET_ENTITY: cAMP-specific 3',5'-cyclic phosphodiesterase 4B [S133D] (Human, UniProt Q07343, S133D)
- Sequence (Q07343 whole entry S133D): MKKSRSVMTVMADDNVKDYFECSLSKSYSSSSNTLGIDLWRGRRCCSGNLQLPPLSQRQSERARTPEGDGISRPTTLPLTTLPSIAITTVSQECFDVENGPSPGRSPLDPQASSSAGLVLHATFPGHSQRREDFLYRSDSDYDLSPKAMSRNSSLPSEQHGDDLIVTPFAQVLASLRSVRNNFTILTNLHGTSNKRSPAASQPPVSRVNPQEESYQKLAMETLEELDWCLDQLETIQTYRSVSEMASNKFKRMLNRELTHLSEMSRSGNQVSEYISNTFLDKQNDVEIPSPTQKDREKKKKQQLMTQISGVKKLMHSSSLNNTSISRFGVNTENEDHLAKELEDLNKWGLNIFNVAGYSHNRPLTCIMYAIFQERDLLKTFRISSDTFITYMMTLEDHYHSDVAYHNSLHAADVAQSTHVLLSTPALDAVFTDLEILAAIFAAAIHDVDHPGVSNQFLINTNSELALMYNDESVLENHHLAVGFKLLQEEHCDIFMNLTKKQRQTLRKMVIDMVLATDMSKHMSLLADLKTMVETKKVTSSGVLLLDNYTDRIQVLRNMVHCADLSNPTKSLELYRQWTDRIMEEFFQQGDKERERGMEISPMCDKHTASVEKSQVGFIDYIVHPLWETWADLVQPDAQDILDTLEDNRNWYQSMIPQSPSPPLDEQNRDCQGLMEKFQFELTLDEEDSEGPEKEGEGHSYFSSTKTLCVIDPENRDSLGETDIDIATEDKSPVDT
- PROTOCOL_SUMMARY: Kinetic Assay
Listed here: items and their measured IC50.
VALUE_TYPE: IC50

Cc1nc(Nc2ccc(CC(=O)O)cc2)nc(-c2ccc(Cl)s2)n1
> 1000 nM
N#CC1CCC(c2cc(Nc3ccc(CC(N)=O)cc3)c3c(n2)CCC3)C1 (stereo not given)
< 1000 nM
NC(=O)Cc1ccc(Nc2cc(C3CCCC3)nc3c2CCC3)cc1
< 1000 nM
CCc1c(C)nc(-c2ccc(Cl)s2)nc1Nc1ccc(Cn2nccn2)cc1
< 1000 nM
OCCc1ccc(Nc2cc(-c3cccc(Cl)c3)nc3c2CCC3)cn1
> 1000 nM
